Record form. Attribute: Plant response rating, Nightshade. Fill in for each entry.
# Test system: Nightshade
# experiment summary: Test C preemergence
# Format: in vivo
# condition info: Rate 62 g/ha; scale 0 to 100, 0 no effect, 100 complete control
Kindly provide the number alone.

The compound CC(C)(C)c1ccn(C2CCN(c3cccc(Cl)c3)C2=O)n1 (stereo not drawn) showed Plant response rating, Nightshade equal to 0

The compound Cc1ccc(N2CCC(n3ccc(C(C)(C)C)n3)C2=O)cc1OC(F)F (stereo not drawn) showed Plant response rating, Nightshade equal to 20

The compound O=C1C(n2ccc(C3CCCCC3)n2)OCN1c1cccc(C(F)(F)F)c1 (stereo not drawn) showed Plant response rating, Nightshade equal to 0

The compound CC(C)c1ccn(C2OCN(c3cccc(C(F)(F)F)c3)C2=O)n1 (stereo not drawn) showed Plant response rating, Nightshade equal to 0

The compound CC(C)(C)c1ccn(C2CCN(c3cccc(OC(F)F)c3)C2=O)n1 (stereo not drawn) showed Plant response rating, Nightshade equal to 0

The compound CC(C)(C)c1ccn(C2CCN(c3cccc(OC(F)(F)F)c3)C2=O)n1 (stereo not drawn) showed Plant response rating, Nightshade equal to 0

The compound CCC(C)c1ccn(C2CCN(c3cccc(OC(C)C)c3)C2=O)n1 (stereo not drawn) showed Plant response rating, Nightshade equal to 0

The compound CCC(CC)c1ccn(C2CCN(c3ccc(C)c(OC)c3)C2=O)n1 (stereo not drawn) showed Plant response rating, Nightshade equal to 100

The compound COc1cc(N2CCC(n3ccc(C(C)(C)C)n3)C2=O)ccc1C (stereo not drawn) showed Plant response rating, Nightshade equal to 0

The compound CCC(C)c1ccn(C2SCN(c3cccc(OC(F)(F)F)c3)C2=O)n1 (stereo not drawn) showed Plant response rating, Nightshade equal to 0

The compound COC(=O)c1cccc(N2CCC(n3ccc(C(C)(C)C)n3)C2=O)c1 (stereo not drawn) showed Plant response rating, Nightshade equal to 60

The compound CCC(CC)c1ccn(C2SCN(c3cccc(C(F)(F)F)c3)C2=O)n1 (stereo not drawn) showed Plant response rating, Nightshade equal to 90

----------
# System: blackgrass (Alopecurus myosuroides)
# experiment summary: Test B postemergence
# Type: in vivo
# condition info: Rate 500 g/ha, scale 0 to 100, 0 is no effect, 100 is complete control, 13 to 15 days
measure: Plant response rating, Blackgrass
Kindly provide the number alone.

The molecule COc1cc(N2CCC(n3ccc(C(C)C)n3)C2=O)ccc1Cl (stereo not drawn) showed Plant response rating, Blackgrass equal to 0

The molecule CCCCC(CCCC)c1ccn(C2SCN(c3cccc(C(F)(F)F)c3)C2=O)n1 (stereo not drawn) showed Plant response rating, Blackgrass equal to 60

The molecule Cc1ccc(N2CCC(n3ccc(C(C)(C)C)n3)C2=O)cc1Cl (stereo not drawn) showed Plant response rating, Blackgrass equal to 0

The molecule CC(C)Oc1cccc(N2CCC(n3ccc(C(C)(C)C)n3)C2=O)c1 (stereo not drawn) showed Plant response rating, Blackgrass equal to 0

The molecule CC(C)c1ccn(C2SCN(c3cccc(C(F)(F)F)c3)C2=O)n1 (stereo not drawn) showed Plant response rating, Blackgrass equal to 20

The molecule O=C1C(n2ccc(C3CCC3)n2)SCN1c1cccc(OC(F)(F)F)c1 (stereo not drawn) showed Plant response rating, Blackgrass equal to 0

The molecule CC(C)c1ccn(C2SCN(c3cccc(OC(F)(F)F)c3)C2=O)n1 (stereo not drawn) showed Plant response rating, Blackgrass equal to 0

The molecule Cc1ccc(N2CCC(n3ccc(C(C)(C)C)n3)C2=O)cc1Br (stereo not drawn) showed Plant response rating, Blackgrass equal to 0

The molecule CSc1cccc(N2CCC(n3ccc(C(C)(C)C)n3)C2=O)c1 (stereo not drawn) showed Plant response rating, Blackgrass equal to 0

----------
# System: woolly cupgrass (Eriochloa villosa)
# experiment summary: Test C preemergence
# Type: in vivo
# condition info: preemergence; Rate 125 g/ha; scale 0 to 100, 0 no effect, 100 complete control
measure: Plant response rating, Cupgrass, Woolly
Kindly provide the number alone.

The compound CC(C)c1ccn(C2OCN(c3cccc(C(F)(F)F)c3)C2=O)n1 (stereo not shown) showed Plant response rating, Cupgrass, Woolly equal to 80

The compound CC(C)(C)c1ccn(C2CCN(c3cccc(Cl)c3)C2=O)n1 (stereo not shown) showed Plant response rating, Cupgrass, Woolly equal to 30

The compound CC(C)(C)c1ccn(C2CCN(c3cccc(OC(F)(F)F)c3)C2=O)n1 (stereo not shown) showed Plant response rating, Cupgrass, Woolly equal to 60

The compound CC(C)(C)c1ccn(C2CCN(c3cccc(Br)c3)C2=O)n1 (stereo not shown) showed Plant response rating, Cupgrass, Woolly equal to 90

The compound COc1cc(N2CCC(n3ccc(C(C)(C)C)n3)C2=O)ccc1C (stereo not shown) showed Plant response rating, Cupgrass, Woolly equal to 100

The compound CCC(C)c1ccn(C2SCN(c3cccc(OC(F)(F)F)c3)C2=O)n1 (stereo not shown) showed Plant response rating, Cupgrass, Woolly equal to 70

The compound CC1(c2ccn(C3SCN(c4cccc(C(F)(F)F)c4)C3=O)n2)CC1 (stereo not shown) showed Plant response rating, Cupgrass, Woolly equal to 50

The compound CC(C)(C)c1ccn(C2CCN(c3ccc(Cl)c(Cl)c3)C2=O)n1 (stereo not shown) showed Plant response rating, Cupgrass, Woolly equal to 20

The compound CC1(c2ccn(C3OCN(c4cccc(C(F)(F)F)c4)C3=O)n2)CC1 (stereo not shown) showed Plant response rating, Cupgrass, Woolly equal to 50

The compound CCC(C)c1ccn(C2SCN(c3cccc(C(F)(F)F)c3)C2=O)n1 (stereo not shown) showed Plant response rating, Cupgrass, Woolly equal to 50

----------
# Tested on: soybean (Glycine max)
# experiment summary: Test C preemergence
# Type: in vivo
# condition info: preemergence, Rate 31 g/ha, scale 0 to 100
# Excerpt: […]
Record form. Attribute: Plant response rating, Soybean. Fill in for each entry.
Kindly provide the number alone.

The compound COc1cc(N2CCC(n3ccc(C(C)(C)C)n3)C2=O)ccc1C (centres unmarked) showed Plant response rating, Soybean equal to 20

The compound CCC(CC)c1ccn(C2SCN(c3cccc(C(F)(F)F)c3)C2=O)n1 (centres unmarked) showed Plant response rating, Soybean equal to 20

The compound CCC(CC)c1ccn(C2CCN(c3ccc(C)c(OC)c3)C2=O)n1 (centres unmarked) showed Plant response rating, Soybean equal to 30

The compound CC(C)c1ccn(C2OCN(c3cccc(C(F)(F)F)c3)C2=O)n1 (centres unmarked) showed Plant response rating, Soybean equal to 0

The compound O=C1C(n2ccc(C3CCC3)n2)SCN1c1cccc(C(F)(F)F)c1 (centres unmarked) showed Plant response rating, Soybean equal to 0

The compound CCCC(C)c1ccn(C2SCN(c3cccc(OC(F)(F)F)c3)C2=O)n1 (centres unmarked) showed Plant response rating, Soybean equal to 0

The compound CCOc1cc(N2CCC(n3ccc(C(C)(C)C)n3)C2=O)ccc1C (centres unmarked) showed Plant response rating, Soybean equal to 80

The compound CC(C)(C)c1ccn(C2CCN(c3ccc(Cl)c(Cl)c3)C2=O)n1 (centres unmarked) showed Plant response rating, Soybean equal to 0

----------
# Tested on: giant foxtail (Setaria faberii)
# experiment summary: Test C preemergence
# Type: in vivo
# condition info: preemergence, Rate 62 g/ha, scale 0 to 100
Entries whose Plant response rating, Foxtail, Giant is below 20 take TRUE; entries at or above 20 take FALSE.

Threshold test, Plant response rating, Foxtail, Giant < 20: COc1cccc(N2CCC(n3ccc(C(C)(C)C)n3)C2=O)c1 (stereo not shown)
FALSE

Threshold test, Plant response rating, Foxtail, Giant < 20: CC(C)(C)c1ccn(C2CCN(c3cccc(SC(F)(F)F)c3)C2=O)n1 (stereo not shown)
TRUE

Threshold test, Plant response rating, Foxtail, Giant < 20: CC(C)(C)c1ccn(C2CCN(c3cccc(I)c3)C2=O)n1 (stereo not shown)
TRUE

Threshold test, Plant response rating, Foxtail, Giant < 20: CCC(CC)c1ccn(C2CCN(c3ccc(Cl)c(OC)c3)C2=O)n1 (stereo not shown)
TRUE

Threshold test, Plant response rating, Foxtail, Giant < 20: Cc1ccc(N2CCC(n3ccc(C(C)(C)C)n3)C2=O)cc1OCCCl (stereo not shown)
TRUE

Threshold test, Plant response rating, Foxtail, Giant < 20: COc1cc(N2CCC(n3ccc(C(C)(C)C)n3)C2=O)ccc1Cl (stereo not shown)
FALSE

Threshold test, Plant response rating, Foxtail, Giant < 20: CCOc1cc(N2CCC(n3ccc(C(C)(C)C)n3)C2=O)ccc1C (stereo not shown)
TRUE

Threshold test, Plant response rating, Foxtail, Giant < 20: CCC(CC)c1ccn(C2CCN(c3cccc(OC(C)C)c3)C2=O)n1 (stereo not shown)
TRUE

----------
# System: Sunflower
# experiment summary: Test C preemergence
# Type: in vivo
# condition info: Rate 250 g/ha, scale 0 to 100, 0 no effect, 100 complete control
measure: Plant response rating, Sunflower
Kindly provide the number alone.

The molecule CCC(C)c1ccn(C2OCN(c3cccc(OC(F)(F)F)c3)C2=O)n1 (stereo not drawn) [Compound 67] showed Plant response rating, Sunflower equal to 0

The molecule CC(C)(C)c1ccn(C2CCN(c3cccc([S+]([O-])C(F)(F)F)c3)C2=O)n1 (stereo not drawn) [Compound 101] showed Plant response rating, Sunflower equal to 30

The molecule CCC(CC)c1ccn(C2CCN(c3ccc(Cl)c(OC)c3)C2=O)n1 (stereo not drawn) [Compound 118] showed Plant response rating, Sunflower equal to 60

The molecule CCCOc1cc(N2CCC(n3ccc(C(C)(C)C)n3)C2=O)ccc1C (stereo not drawn) [Compound 107] showed Plant response rating, Sunflower equal to 40

The molecule COc1cc(N2CCC(n3ccc(C(C)C)n3)C2=O)ccc1C (stereo not drawn) [Compound 85] showed Plant response rating, Sunflower equal to 70

The molecule CCC(C)c1ccn(C2CCN(c3cccc(OC(C)C)c3)C2=O)n1 (stereo not drawn) [Compound 83] showed Plant response rating, Sunflower equal to 0

Ref: patent US7138361B2
